Kindly supply the reported Morningglory plant response rating (0 to 10 scale) values for the records listed here.
- Test system: morningglory
- assay-explanation: Test B pre/postemergence morningglory
- Assay type: in vivo, Ipomoea hederacea
- condition-context: Preemergence, Rate 125 g/ha; 0 is no effect, 10 is complete control
Numbers only.

// below: answered compounds
C=C(C)Cn1c(=O)on(C(=O)N(c2ccc(F)cc2)C(C)C)c1=O [Compound 139]	0
CC(C)N(C(=O)n1oc(=O)n([C@H](C)c2ccccc2)c1=O)c1ccc(Cl)cc1 [Compound 178]	0
CC(C)N(C(=O)n1oc(=O)n(CCCl)c1=O)c1ccc(F)cc1 [Compound 148]	0
Cc1ccccc1Cn1c(=O)on(C(=O)N(c2ccc(Cl)cc2)C(C)C)c1=O [Compound 136]	0

// moving on: another record for Morningglory plant response rating (0 to 10 scale)
Query: Morningglory plant response rating (0 to 10 scale) for CC(C)N(C(=O)n1oc(=O)n(C(C)c2ccccc2)c1=O)c1ccc(F)cc1 (centres unmarked) [Compound 134] ?
Response: 0

###

- Tested on: soybean
- assay-explanation: Test B pre/postemergence soybean
- Type: in vivo, Glycine max
- condition-context: Preemergence, Rate 500 g/ha; scale of 0 to 10 where 0 is no effect and 10 is complete control
experimental-endpoint: Plant response rating, Soybean

// below: answered molecules
Cc1ccccc1-n1c(=O)on(C(=O)N(c2ccccc2F)C(C)C)c1=O	0
CC(=O)N(C)CCn1c(=O)on(C(=O)N(c2ccc(F)cc2)C(C)C)c1=O	0
COCCOCn1c(=O)on(C(=O)N(c2ccc(F)cc2)C(C)C)c1=O	3
CC(C)N(C(=O)n1oc(=O)n(CCCC#N)c1=O)c1ccccc1	7

Go through the list and state Plant response rating, Soybean for each entry.
1. C=C(Cn1c(=O)on(C(=O)N(c2ccccc2)C(C)C)c1=O)C(C)(C)C
2. Cc1cc(C)c(-n2c(=O)on(C(=O)N(c3ccc(F)cc3)C(C)C)c2=O)c(Br)c1

Response:
[0, 0]

###

- Tested on: pigweed
- assay-explanation: Test B pre/postemergence pigweed
- Type: in vivo, Amaranthus retroflexus
- condition-context: Preemergence, Rate 125 g/ha; scale of 0 to 10 where 0 is no effect and 10 is complete control
experimental-endpoint: Plant response rating, Redroot pigweed
One number for each entry.

// below: answered compounds
CC(C)N(C(=O)n1oc(=O)n(C(C)CCl)c1=O)c1ccccc1 (centres unmarked)	8
COC(CCl)n1c(=O)on(C(=O)N(c2ccccc2)C(C)C)c1=O (centres unmarked)	7

Go through the list and state Plant response rating, Redroot pigweed for each entry.
1. Cc1nc(C)c(C(C)n2c(=O)on(C(=O)N(c3ccc(F)cc3F)C(C)C)c2=O)s1 (centres unmarked)
2. COC(C)n1c(=O)on(C(=O)N(c2ccc(F)cc2)C(C)C)c1=O (centres unmarked)
3. CC(C)N(C(=O)n1oc(=O)n(CCCC(F)(F)F)c1=O)c1ccc(F)cc1
4. CC(C)N(C(=O)n1oc(=O)n(CC(F)F)c1=O)c1ccc(F)cc1F
5. CC(C)N(C(=O)n1oc(=O)n(C(C)C#N)c1=O)c1ccc(Cl)cc1 (centres unmarked)
6. CC(C)N(C(=O)n1oc(=O)n(CCl)c1=O)c1ccc(Cl)cc1

Response:
[0, 0, 5, 7, 0, 0]

###

- Test system: morningglory
- assay-explanation: Test B pre/postemergence morningglory
- Assay type: in vivo, Ipomoea hederacea
- condition-context: Postemergence, Rate 125 g/ha; scale of 0 to 10 where 0 is no effect and 10 is complete control
- Experimental: […] At the same time, these crop and weed species were also treated with postemergence applications of test chemicals formulated in the same manner. […] Treated plants and controls were maintained in a greenhouse for twelve to sixteen days, after which all species were compared to controls and visually evaluated. […]
Kindly supply the reported Plant response rating, Morningglory values for the records listed here.
Give bare numbers.

// below: answered compounds
CC(=O)N(C)CCn1c(=O)on(C(=O)N(c2ccc(F)cc2)C(C)C)c1=O	1
CCOC(=O)CC(C(=O)OCC)n1c(=O)on(C(=O)N(c2ccccc2)C(C)C)c1=O (stereo not shown)	2
CC(=O)NCn1c(=O)on(C(=O)N(c2ccccc2)C(C)C)c1=O	2

// moving on: another record for Plant response rating, Morningglory
Query: Plant response rating, Morningglory for `CC(C)N(C(=O)n1oc(=O)n(CNC(=O)c2ccccc2)c1=O)c1ccc(F)cc1F` ?
Response: 1

###

Kindly supply the reported Redroot pigweed plant response rating values for the records listed here.
- Test system: pigweed
- assay-explanation: Test B pre/postemergence pigweed
- Assay type: in vivo, Amaranthus retroflexus
- condition-context: Preemergence, Rate 250 g/ha; scale of 0 to 10 where 0 is no effect and 10 is complete control
Numbers only.

// below: answered molecules
CC(C)N(C(=O)n1oc(=O)n(C2CCCCCC2)c1=O)c1ccccc1	0
CCOC(=O)C(C)N(C(=O)n1oc(=O)n(-c2c(C)cccc2C)c1=O)c1ccc(F)cc1 (centres unmarked)	0
Cc1ccccc1-n1c(=O)on(C(=O)N(c2cccc(F)c2)C(C)C)c1=O	4

Go through the list and state Redroot pigweed plant response rating for each entry.
1. COCC(C)n1c(=O)on(C(=O)N(c2ccc(F)cc2F)C(C)C)c1=O (centres unmarked)
2. CC(C)N(C(=O)n1oc(=O)n(C2CCCC2)c1=O)c1ccc(Cl)cc1
3. CCC(CC)n1c(=O)on(C(=O)N(c2ccc(F)cc2F)C(C)C)c1=O
4. CC(C)N(C(=O)n1oc(=O)[nH]c1=O)c1ccc(F)cc1F
5. COCCOCn1c(=O)on(C(=O)N(c2ccc(F)cc2)C(C)C)c1=O

Response:
[10, 7, 10, 0, 7]

###

- System: rape
- assay-explanation: Test B pre/postemergence rape
- Assay type: in vivo, Brassica napus
- condition-context: Preemergence, Rate 500 g/ha; scale of 0 to 10 where 0 is no effect and 10 is complete control
Kindly supply the reported Plant response rating, Rape values for the records listed here.
Answers are plain numbers.

COCCOCn1c(=O)on(C(=O)N(c2ccc(F)cc2)C(C)C)c1=O [Compound 258]	7
CCCCCn1c(=O)on(C(=O)N(c2ccc(F)cc2F)C(C)C)c1=O [Compound 636]	10

Go through the list and state Plant response rating, Rape for each entry.
1. CC(C)N(C(=O)n1oc(=O)n(CNC(=O)c2ccccc2)c1=O)c1ccc(F)cc1F [Compound 619]
2. CC[C@@H](C)n1c(=O)on(C(=O)N(c2ccc(F)cc2F)C(C)C)c1=O [Compound 667]
3. CC(C)N(C(=O)n1oc(=O)n(C2CC2)c1=O)c1ccccc1 [Compound 243]
4. CC(C)N(C(=O)n1oc(=O)n(CC(=O)C2CCC2)c1=O)c1ccc(Cl)cc1 [Compound 643]
5. Cc1ccccc1-n1c(=O)on(C(=O)N(c2ccccc2F)C(C)C)c1=O [Compound 204]

Response:
1: 0; 2: 10; 3: 10; 4: 6; 5: 3

###

- System: wild oat
- assay-explanation: Test B pre/postemergence wild oat
- Assay type: in vivo, Avena fatua
- condition-context: Preemergence, Rate 500 g/ha; scale 0 (no effect) to 10 (complete control)
Kindly supply the reported Wild oats plant response rating values for the records listed here.
Numbers only.

CCN(CC)C(=O)n1oc(=O)n(-c2ccc(OC(F)(F)F)cc2)c1=O	0
Cc1nn(C)c(Cl)c1-n1c(=O)on(C(=O)N(c2ccc(F)cc2)C(C)C)c1=O	5
CCc1noc(C)c1-n1c(=O)on(C(=O)N(c2ccc(F)cc2)C(C)C)c1=O	0

// moving on: another record for Wild oats plant response rating
Query: Wild oats plant response rating for `CCN(C(=O)n1oc(=O)n(Cc2cccs2)c1=O)C1CCCCC1` ?
Response: 0

###

- System: blackgrass
- assay-explanation: Test B pre/postemergence blackgrass
- Assay type: in vivo, Alopecurus myosuroides
- condition-context: Rate 62 g/ha, Postemergence; scale 0 to 10, 0 no effect, 10 complete control
Kindly supply the reported Blackgrass plant response rating values for the records listed here.
Give bare numbers.

Go through the list and state Blackgrass plant response rating for each entry.
1. CC(C)N(C(=O)n1oc(=O)n(CC2CCCC2)c1=O)c1ccc(F)cc1 [Compound 322]
2. CC(C)N(C(=O)n1oc(=O)n(C(C)C#N)c1=O)c1ccc(Cl)cc1 (stereo not shown) [Compound 451]
3. CC(C)N(C(=O)n1oc(=O)n(CC[N+](=O)[O-])c1=O)c1ccc(Cl)cc1 [Compound 483]
4. CC(C)N(C(=O)n1oc(=O)n(C2CCCC2)c1=O)c1ccc(Cl)cc1 [Compound 282]

Response:
[0, 0, 0, 0]

###

- Test system: giant foxtail
- assay-explanation: Test B pre/postemergence giant foxtail
- Format: in vivo, Setaria faberii
- condition-context: Postemergence, Rate 500 g/ha; scale of 0 to 10 where 0 is no effect and 10 is complete control
Kindly supply the reported Giant foxtail plant response rating values for the records listed here.

CC(C)N(C(=O)n1oc(=O)n(CCC#N)c1=O)c1ccc(F)cc1F	8

Go through the list and state Giant foxtail plant response rating for each entry.
1. CC(C)Cn1c(=O)on(C(=O)N(c2ccc(F)cc2F)C(C)C)c1=O
2. CC(C)N(C(=O)n1oc(=O)n(CCl)c1=O)c1ccc(Cl)cc1
3. CC(C)N(C(=O)n1oc(=O)n(CCCC(F)(F)F)c1=O)c1ccc(F)cc1

Response:
9
0
9

Go through the list and state Giant foxtail plant response rating for each entry.
1. CC(C)N(C(=O)n1oc(=O)n(C(C)Cl)c1=O)c1ccc(F)cc1 (stereo not drawn)
2. Cc1nc(C)c(C(C)n2c(=O)on(C(=O)N(c3ccc(F)cc3F)C(C)C)c2=O)s1 (stereo not drawn)

Response:
[9, 0]

The measurements presented in this section are drawn from patent US6737383B1.
